Below, each entry is listed with its recorded log10 of t1/2.
- TARGET ENTITY: T1, amino acid residues 26-148 of human ANGPTL4 fused in-line to mouse IgG2a (hANGPTL4-mFc) (human)
- T1 construct: contains the N-terminal coiled-coil region
- T1 chain: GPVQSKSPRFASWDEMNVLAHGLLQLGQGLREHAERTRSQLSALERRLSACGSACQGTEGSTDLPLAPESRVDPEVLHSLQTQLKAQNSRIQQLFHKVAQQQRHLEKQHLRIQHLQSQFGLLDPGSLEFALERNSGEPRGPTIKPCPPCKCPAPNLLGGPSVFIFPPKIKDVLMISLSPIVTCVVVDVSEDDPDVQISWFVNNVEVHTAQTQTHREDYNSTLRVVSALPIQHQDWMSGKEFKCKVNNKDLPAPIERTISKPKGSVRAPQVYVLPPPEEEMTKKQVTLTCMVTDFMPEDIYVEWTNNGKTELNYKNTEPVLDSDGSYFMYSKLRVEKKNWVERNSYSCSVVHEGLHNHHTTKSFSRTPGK
- EXPERIMENT: SPR (Biacore T100), hANGPTL4-mFc captured by anti-mouse IgG, antibody injected, 25° C.
ASSAY ENDPOINT: log10 of t1/2 (log10 of the value in h)

H1H257P (antibody, V domains shown, Fully human antibody; the H1H prefix stands for human IgG1 (said outright only for H1H268P and H1H284P)) VH: EVQLVESGGGLVQPGGSLRLSCAASGFTFSSYDMHWVRQVAGKGLEWVSAIGTAGDTYYPVSVKGRFTISRENAKNSLYLHMNSLRAGDTAVYFCARGDSRNYYVGDYFDYWGQGTLVTVSS VL: DIQMTQSPSTLSASVGDRVTITCRASQSISRWLAWYQQKPGKAPKVLIYQASNLESGVPSRFSGSGSGTEFTLTISSLQPDDFATYYCQQYDSYSRAFGRGTKVEIK    0.18
H1H644P (antibody, V domains shown, Fully human antibody, H1H prefix (human IgG1)) VH: EVQLVESGGGLVQPGGSLRLSCAASGFTFSSYDMHWVRQVAGKGLEWVSAIGTAGDTYYPVSVKGRFTISRENAKNSLYLHMNSLRAGDTAVYYCARGDSRNYYVGDYFDYWGQGTLVTVSS VL: DIQMTQSPSTLSASVGDRVTITCRASQSISRWLAWYQQKPGKAPKVLIYKASNLESGVPSRFSGSGSGTEFTLTISSLQPDDFATYYCQQYNTYSRTFGQGTKVEIK    0.38
H1H283P (antibody, V domains shown, Fully human antibody, H1H prefix (human IgG1)) VH: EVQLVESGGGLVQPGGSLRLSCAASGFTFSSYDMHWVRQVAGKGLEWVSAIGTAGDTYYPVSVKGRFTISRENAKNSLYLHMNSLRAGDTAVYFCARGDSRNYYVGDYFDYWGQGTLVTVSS VL: DIQMTQSPSTLSASVGDRVTITCRASQSISRWLAWYQQKPGKAPKVLIYKASNLESGVPSRFSGSGSGTEFTLTISSLQPDDFATYYCQQYNSYSRTFGQGTKVEIK    0.30
H1H292P (antibody, V domains shown, Fully human antibody, H1H prefix (human IgG1)) VH: EVQLVESGGGLVQPGGSLRLSCVASGFTFSSYDMHWVRQLPGKGLEWVSAIGVAGDTYYPASVKGRFTISRENAKNSLYLQMNSLRAGDTAVYYCARGDSGNYYDGDYFDFWGQGTLVTVSS VL: DIQMTQSPSTLSASVGDRVTITCRASQSINRWLAWYQQKPGKAPKVLIYKASNLESGVPSRFSGSGSGTEFTLTISSLQPDDFATYYCQQYDSYFRTFGQGTKVEIK    0.27
H1H284P (antibody, V domains shown, also called entire H1H284 mAb; Full mAb) VH: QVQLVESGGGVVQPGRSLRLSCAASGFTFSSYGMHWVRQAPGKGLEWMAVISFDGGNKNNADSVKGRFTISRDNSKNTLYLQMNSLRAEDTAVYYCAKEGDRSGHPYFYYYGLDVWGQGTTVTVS VL: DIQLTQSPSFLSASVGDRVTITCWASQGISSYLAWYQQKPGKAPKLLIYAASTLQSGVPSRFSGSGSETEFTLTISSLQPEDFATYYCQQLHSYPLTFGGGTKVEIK    0.43
H1H624P (antibody, V domains shown, Fully human antibody, H1H prefix (human IgG1)) VH: EVQLVESGGGLVQPGGSLRLSCAASEFIFSSYAMNWVRQAPGKGLEWVSVISGSGDSKYYADSVKGRFTISRDNSKNTLYLQMNSLRVEDTAVYYCAKDGKDRYGFYYNFYGMDVWGQGTTVTVS VL: DIQMTQSPSFLSASVGDRVTITCWASQGISSYLAWYQQKPGKAPKILIYAASTLQSGVPSRFSASGSGTEFTLTISSLQPEDFATYHCQQLNSYPFTFGPGTKVDIK    -0.93
H1H638P (antibody, V domains shown, Fully human antibody, H1H prefix (human IgG1)) VH: EVQLVESGGGLVQPGGSLRLSCVASGFTFSSYDMHWVRQVAGKGLEWVAAIGTAGDTYYPVSVKGRFTISRENAKNSLSLHMNSLRAGDTAVYYCARGDSRNYYVGDYFDYWGQGTLVTVSS VL: DIQMTQSPSTLSASVGDRVTITCRASQSISRWLAWYQQKPGKAPKVLIYKASSLKSGVPSRFSGSGSGTEFTLTISSLQSDDFATYYCQQYNSYSRTFGQGTKVEIK    0.15
H1H295P (antibody, V domains shown, Fully human antibody, H1H prefix (human IgG1)) VH: EVQLVESGGGLVQPGGSLRLSCAASGFTFSTYDMHWVRQAPGKGLEWVSAIGSAGDTYYPGSVKGRFTISRDNAKSSLFLQMNSLRAGDTALYYCARGDSRNYFVGDYFDYWGQGTLVTVSS VL: DIQMTQSPSTLSASVGDRVTITCRASQSIGTWLAWYQQKPGKAPKILIYKASSLEGGVPSRFSGSGSGTEFTLTISSLQPDDFANYYCQQYNSFYRTFGQGTKVEIK    1.16
H1H653P (antibody, V domains shown, Fully human antibody, H1H prefix (human IgG1)) VH: QVQLVESGGGVVQPGRSLRLSCVASGFTFSSYGMHWVRQAPGKGLEWMAVIWYDGSNKYFADSVKDRFTISRDNSKNTLYLQMNTLRPDDTAVYYCVKADAPLLIYGVDVWGQGTTVTVS VL: DIQMTQSPSSLSASVGDRVTITCRASQGIRNDLGWYQEKPGKAPKRLIYFASSLQSGVPSRFSGSGSGTEFTLTISSLQPEDFATYYCLQHNSYPYTFGQGTKLEIK    -0.14
